The values you see were collected from patent US20220249447A1.

# System: C. difficile ATCC BAA 1801
# assay: MIC against C. difficile ATCC BAA 1801
# Format: cell-based
# test.settings: Clostridioides difficile, BAA1801; read-out: MIC C. difficile ATCC BAA 1801
measurement.kind: MIC (µg/mL)
Answers are plain numbers, in µg/mL.

Known MIC results, listed for orientation:
O=C(Nc1nnc(-c2cccs2)o1)c1ccc(SC(F)(F)F)cc1	0.5
O=C(Nc1nnc(-c2ccc(F)cc2F)o1)c1ccc(SC(F)(F)F)cc1	0.015
O=C(Nc1nnc(-c2cccs2)o1)c1ccc(OC(F)(F)F)cc1	0.5
O=C(Nc1nnc(-c2cccc(F)c2)o1)c1ccc(SC(F)(F)F)cc1	0.03
O=C(Nc1nnc(-c2ccc(Cl)cc2Cl)o1)c1ccc(SC(F)(F)F)cc1	0.015

Q. What is its MIC for C. difficile ATCC BAA 1801? Entry: O=C(Nc1nnc(-c2cccc(Br)c2)o1)c1ccc(SC(F)(F)F)cc1
A. 0.06
